assay: potency distribution in mice with tangled B16 melanoma after IV administration (direct radiometry of organs and tissues); details: female, F1 CBAxC57B1 hybrids, mouse, tumour and muscle, iv, total radioactivity
measurement-kind: tissue to tissue ratio at 0.5 h
API doc: respond with a numeric literal and nothing else, no unit.

Ask: Value lookup for tissue to tissue ratio at 0.5 h; key = C[C@@H](O)[C@H](NC(=O)[C@@H]1CSSC[C@H](NC(=O)[C@@H](N)CCCCNC(=O)CN2CCN(CC(=O)O)CCN(CC(=O)O)CCN(CC(=O)O)CC2)C(=O)N[C@@H](Cc2ccc(O)cc2)C(=O)N[C@H](Cc2c[nH]c3ccccc23)C(=O)N[C@@H](CCCCN)C(=O)N[C@@H]([C@@H](C)O)C(=O)N1)C(=O)O [1b, marked ^68Ga, metal not drawn]
Result: 4.2
